Hello, the source for this data is patent US12435061B2, in case you need it.

- subject of test: hTRPV3 (Homo sapiens (Human), UniProt Q8NET8)
- Sequence (Q8NET8 whole entry): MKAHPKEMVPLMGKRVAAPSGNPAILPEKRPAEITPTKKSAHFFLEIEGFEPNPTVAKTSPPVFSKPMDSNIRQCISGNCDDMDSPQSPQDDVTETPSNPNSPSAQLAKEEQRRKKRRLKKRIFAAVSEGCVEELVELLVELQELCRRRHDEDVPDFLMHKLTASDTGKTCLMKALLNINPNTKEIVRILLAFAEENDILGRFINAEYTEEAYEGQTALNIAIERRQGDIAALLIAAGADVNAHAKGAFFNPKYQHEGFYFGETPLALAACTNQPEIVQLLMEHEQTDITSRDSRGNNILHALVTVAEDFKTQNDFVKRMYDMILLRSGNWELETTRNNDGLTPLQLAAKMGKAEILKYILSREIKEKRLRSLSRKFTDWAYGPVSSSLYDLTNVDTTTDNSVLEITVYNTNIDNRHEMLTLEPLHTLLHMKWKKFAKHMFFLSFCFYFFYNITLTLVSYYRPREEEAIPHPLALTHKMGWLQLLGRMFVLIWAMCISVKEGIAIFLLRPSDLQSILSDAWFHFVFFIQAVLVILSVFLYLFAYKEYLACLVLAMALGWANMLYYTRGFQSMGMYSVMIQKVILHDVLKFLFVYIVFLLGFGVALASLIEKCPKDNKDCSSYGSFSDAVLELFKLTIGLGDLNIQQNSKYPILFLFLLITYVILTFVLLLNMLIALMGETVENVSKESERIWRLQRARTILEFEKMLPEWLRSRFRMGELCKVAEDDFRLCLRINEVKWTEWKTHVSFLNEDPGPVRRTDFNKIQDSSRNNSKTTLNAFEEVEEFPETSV
- method: Whole-cell patch clamp, hTRPV3 Phase 1 / Phase 2 currents
- Assay type: cell-based
- condition info: Phase 1 current; read-out: hTRPV3 (nM) (Phase 1)
Rule: measured IC50 below 600 nM gets met; anything equal to or greater than 600 nM gets not met.

molecule	label class
COCc1ccccc1-c1ccc(N2CC[C@H](Oc3ccc(C(F)(F)F)cn3)C2)c(CO)c1	met
OCCc1cc(C(O)c2cccc(Cl)c2)ccc1N1CC[C@H](Nc2ccc(F)cn2)C1 (some centres unmarked)	not met
CCc1ccccc1C(=O)c1ccc(N2CC[C@H](Oc3ncccc3Cl)C2)c(CO)c1 [Compound 1-256]	met
Cc1ccccc1-c1ccc(N2CC[C@H](Oc3ncccc3C)C2)c(CO)n1	met
OCc1cc(Oc2ccc(Cl)cc2)ccc1N1C[C@@H](O)[C@H](Oc2ccc(C(F)(F)F)cn2)C1	not met
OCc1cc(Oc2ccccc2Cl)ccc1N1CC[C@H](Nc2ncccc2Cl)C1	met

Hi there! Is IC50 for CCc1ccccc1-c1ccc(CO)c(N2CC[C@H](Oc3ccc(C(F)(F)F)cn3)C2)c1 below 600 nM, do you know?
met

For NC(=O)c1cc(-c2ccccc2)ccc1N1CCC(Oc2ccc3ccccc3n2)C1=O (centres unmarked) , is the recorded IC50 below the cut-off of 600 nM?
not met

Dear colleague, could you confirm whether IC50 of NC(=O)c1ccccc1N1CCC(Oc2ccc3ccccc3n2)C1=O (centres unmarked) falls below 600 nM? Thanks.
not met

Determine whether this molecule shows IC50 lower than 600 nM (ties excluded): NC(=O)c1cc(Oc2ccccc2Cl)ccc1N1CC[C@H](Oc2ncccc2Cl)C1
met

Record OCc1cc([C@H](O)c2ccccc2Cl)ccc1N1CC[C@H](Oc2ncccc2F)C1 : is its IC50 strictly below 600 nM?
not met

Hi there! Is IC50 for NC(=O)c1cc(C(=O)c2ccccc2)ccc1N1CC[C@@H](Oc2ccc(C(F)(F)F)cn2)C1 below 600 nM, do you know?
not met

Below 600 nM on IC50? Entry NC(=O)c1cc(-c2ccncc2)ccc1N1CC[C@@H](Oc2ccccn2)C1
not met

In the record for CC(C)c1ccccc1Oc1ccc(N2CC[C@H](Oc3ncccc3F)C2)c(CCO)c1 , is IC50 less than 600 nM?
met

---

- method: Aqueous solubility assay in Normal Ringer Solution
- condition info: Normal Ringer Solution, saline or isotonic, kinetic from dmso stock
result type: solubility at 40 min

molecule	solubility at 40 min
COc1ccccc1Oc1ccc(N2CC[C@H](Oc3ncccc3C)C2)c(CO)c1 [Compound 1-340]	~2.4 µM
O=C(CO)c1cc(-c2ccccc2)ccc1N1CC[C@H](Oc2ccc(C(F)(F)F)cn2)C1 [Compound 1-178]	~0.2 µM
CC(=O)c1ccccc1-c1ccc(N2CC[C@H](Oc3ccc(C(F)(F)F)cn3)C2)c(CO)c1 [Compound 1-157]	~1.8 µM
Cc1cccnc1O[C@H]1CCN(c2ccc(-c3ccccc3)cc2CO)C1 [Compound 1-131]	~0.62 µM
CCc1cncnc1Oc1ccc(C2CCN(C(=O)c3ncccc3Cl)C2)c(CO)c1 (centres unmarked) [Compound 2-22]	> 20.3 µM
N#Cc1ccccc1-c1ccc(N2CC[C@H](Oc3ccc(C(F)(F)F)cn3)C2)c(CO)n1 [Compound 1-197]	~0.4 µM

For record CC(C)c1ccccc1-c1ccc(C2CCN(C(=O)c3ccccn3)C2)c(CO)c1 (centres unmarked) [Compound 2-42] the listed solubility at 40 min is > 19.7 µM

The value of solubility at 40 min measured for the molecule CCc1ccccc1-c1ccc(C2CCN(C(=O)c3ccc(C)cn3)C2)c(CO)c1 (centres unmarked) [Compound 2-50] turned out to be ~3.9 µM
